Experiment: Cmax in Sprague-Dawley rat at 1 mg/kg, iv by LC-MS/MS analysis
Assay type: ADME, organism-based
Conditions: in vivo
assay.endpoint: Cmax (ng/mL)
Please respond with the number in ng/mL and leave the unit unwritten.

Problem: Entry O=C(Nc1cc(C(F)(F)F)cc(C(F)(F)F)c1)N[C@@H](Cc1ccccc1)Cn1c[n+](Cc2ccc3ccccc3c2)c2ccccc21.[Br-] : reported Cmax = ?
Solution: 534

====

pIC50 values for the molecules below.
Target: Mitogen-activated protein kinase 1 (Homo sapiens, UniProt P28482)
Sequence (P28482 whole entry): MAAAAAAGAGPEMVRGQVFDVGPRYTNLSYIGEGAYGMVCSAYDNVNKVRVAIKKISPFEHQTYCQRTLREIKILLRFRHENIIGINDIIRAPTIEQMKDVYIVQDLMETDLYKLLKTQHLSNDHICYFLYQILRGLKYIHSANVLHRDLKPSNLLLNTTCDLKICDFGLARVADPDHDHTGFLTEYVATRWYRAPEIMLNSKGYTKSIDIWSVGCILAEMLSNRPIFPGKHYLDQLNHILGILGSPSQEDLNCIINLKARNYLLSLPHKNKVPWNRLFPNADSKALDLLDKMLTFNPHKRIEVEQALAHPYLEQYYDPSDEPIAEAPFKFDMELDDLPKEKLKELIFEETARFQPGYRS
Test: Inhibition of ERK2 (unknown origin) incubated for 60 mins by luminescence based ADP-Glo kinase assay
The read-out pIC50 is expressed as -log10 of concentration in moles per litre.

Use these answered entries as a reference point.
[
  {
    "cpd.smiles": "CC(C)[C@@H](Cn1c[n+](Cc2ccccc2)c2ccccc21)NC(=O)Nc1cc(C(F)(F)F)cc(C(F)(F)F)c1",
    "assay.system": "Mitogen-activated protein kinase 1 (Homo sapiens, UniProt P28482)",
    "pIC50": 6.54
  },
  {
    "cpd.smiles": "O=C(Nc1cc(C(F)(F)F)cc(C(F)(F)F)c1)N[C@@H](Cc1ccccc1)Cn1c[n+](Cc2ccc(Cl)cc2Cl)c2ccccc21",
    "assay.system": "Mitogen-activated protein kinase 1 (Homo sapiens, UniProt P28482)",
    "pIC50": 6.70
  }
]

// next item, pIC50 requested
Problem: Entry O=C(Nc1cc(C(F)(F)F)cc(C(F)(F)F)c1)N[C@@H](Cc1ccccc1)Cn1cc(C(F)(F)F)[n+](Cc2ccccc2)c1 : reported pIC50 = ?
Solution: 6.53
